# Tested on: TK-10 renal
# assay.explanation: NCI tumour cell line growth inhibition, 48 h
experimental.endpoint: TGI

> print(dat)
                                smiles.data  value.measured
1                 COc1ccc(N(C)Sc2ccccc2)cc1        > 100 µM
2  COc1ccc(N=Nc2ccc3oc(=O)c(C(=O)Nc4ccccc4)cc3c2)cc1         > 10 µM
3  CC1=C(O)C(=O)C[C@]2(C)[C@H]3CC=C4[C@@H]5CC(C)(C)CC[C@@H]5C(=O)[C@H](O)[C@@]4(C)[C@]3(C)CC[C@@H]12         > 50 µM

###

# System: CCRF-CEM leukemia
# assay.explanation: NCI tumour cell line growth inhibition, 48 h
experimental.endpoint: TGI

compound	experimental.target	experimental.endpoint	value.measured
Cc1ccc2c(c1C)-c1c(ccc(C)c1C)C(=O)C2=O	CCRF-CEM leukemia	TGI	0.991 µM
COc1cccc(Nc2nc(-c3cccs3)nc3ccc(Br)cc23)c1	CCRF-CEM leukemia	TGI	> 100 µM
c1ccc(-c2ccc(-c3cc4ccccc4[nH]3)cc2)cc1	CCRF-CEM leukemia	TGI	> 100 µM
COc1cc2nc(-c3cccs3)nc(N3C(c4ccc(O)cc4)=NNC(=O)c4ccccc43)c2cc1OC	CCRF-CEM leukemia	TGI	> 100 µM
[C-]#[O+].[C-]#[O+].[C-]#[O+].[C-]#[O+].[Ir].[Ir].[O-]c1ccc2ccccc2c1C=Nc1ccc(N=Cc2c([O-])ccc3ccccc23)cc1	CCRF-CEM leukemia	TGI	> 100 µM
Nc1ccc2nc3ccc(N)cc3[n+](-c3ccccc3)c2c1	CCRF-CEM leukemia	TGI	> 100 µM
Nc1ncnc2c1ncn2CC(O)C(=O)O (configuration not stated)	CCRF-CEM leukemia	TGI	> 100 µM
COc1ccc(C/C(C)=C(\c2ccc(OCCN3CCOCC3)cc2)c2ccc(OC(=O)Cc3ccccc3)cc2)cc1	CCRF-CEM leukemia	TGI	8.27 µM
O=C1NCCCC12CCCNC2=O	CCRF-CEM leukemia	TGI	> 100 µM
C=CCN(N=O)C(=O)N(CCCC(NC(C)=O)C(=O)NCc1ccccc1)Cc1ccccc1 (configuration not stated)	CCRF-CEM leukemia	TGI	95.6 µM
O=C1c2cc3c(cc2CC12Cc1cc4c(cc1C2=O)CCC4)CCC3	CCRF-CEM leukemia	TGI	> 100 µM
CN(C)CCCNc1ncnc2nc[nH]c12	CCRF-CEM leukemia	TGI	> 100 µM
Cc1ccc(/C=C2/SC(Nc3nc(-c4nc(NC5=NC(=O)/C(=C\c6ccc(C)cc6)S5)sc4C)c(C)s3)=NC2=O)cc1	CCRF-CEM leukemia	TGI	> 50 µM
C=C[C@H]1CC[C@H]2[C@@H]3CC=C4C[C@@H](OC5OCC(O)C(O)C5O)CC[C@]4(C)[C@H]3CC[C@]12C (some centres not stated)	CCRF-CEM leukemia	TGI	> 100 µM
COC(=O)c1cc(-c2cc(OC)c(OC)c(OC)c2)[nH]c1N/N=C/c1c(Cl)cccc1Cl	CCRF-CEM leukemia	TGI	> 100 µM
CCOC(=O)c1cc(C2CCN(CC(C)CC)C2=S)c(-c2cc(C)no2)[nH]1 (configuration not stated)	CCRF-CEM leukemia	TGI	> 100 µM
CCN(CC)CCC1CCCCN1CC(=O)N1c2ccccc2NC(=O)c2ccccc21 (configuration not stated)	CCRF-CEM leukemia	TGI	> 100 µM
C=CCOC1=C(OCC=C)C(C2COC(C)(C)O2)OC1=O (configuration not stated)	CCRF-CEM leukemia	TGI	> 100 µM
COc1ccc(C(Cc2cc(OC)c(OC)c(OC)c2)C(=O)O)cc1 (configuration not stated)	CCRF-CEM leukemia	TGI	> 100 µM
COc1ccc(-c2cnnn2-c2cc(OC)c3c(c2)OCO3)cc1	CCRF-CEM leukemia	TGI	> 100 µM
C(=C\c1nccs1)/c1cccc(/C=C/c2nccs2)n1	CCRF-CEM leukemia	TGI	> 50 µM
CC1=C(C(=O)Nc2cccc(Cl)c2)C(c2ccc([N+](=O)[O-])cc2)C(C(=O)Nc2cccc(Cl)c2)=C(C)N1	CCRF-CEM leukemia	TGI	> 100 µM
NC1=C(Br)C(=O)c2ncccc2C1=O	CCRF-CEM leukemia	TGI	13.7 µM
Nc1c(Br)c(=O)[nH]c(=O)n1COCCO	CCRF-CEM leukemia	TGI	> 100 µM
Cc1ccc(S(=O)(=O)NNC(=O)c2sc(-c3nc(C)c(C(=O)NNS(=O)(=O)c4ccc(C)cc4)s3)nc2C)cc1	CCRF-CEM leukemia	TGI	> 100 µM
C(=Nc1ccc(-c2cc(-c3ccccc3)nc3ccc4ccccc4c23)cc1)c1ccccc1	CCRF-CEM leukemia	TGI	> 100 µM
COC(=O)C1=C(C(=O)OC)C2C(C)=CC(C)=CN2C(C#N)=C(SC)S1 (configuration not stated)	CCRF-CEM leukemia	TGI	56.5 µM
COC(=O)C1C2C=CC(C2)C1(C(=O)OC)S(=O)CC12CCC(CC1O)C2(C)C (configuration not stated)	CCRF-CEM leukemia	TGI	> 100 µM
C=CN1C(=O)OC[C@@H]1c1ccccc1	CCRF-CEM leukemia	TGI	> 100 µM
COc1ccc(-c2cc(-c3ccccc3)nc(N3CCN(CCNc4ccnc5cc(Cl)ccc45)CC3)n2)cc1	CCRF-CEM leukemia	TGI	> 100 µM
N#Cc1c2cccnc2c2nnc3cc(Cl)c(Cl)cc3n12	CCRF-CEM leukemia	TGI	> 100 µM
C[C@H]1[C@H](C)CC[C@]2(C(=O)N3CCN(C)CC3)CC[C@]3(C)C(=CC[C@@H]4[C@@]5(C)C/C(=C/c6cccnc6)C(=O)C(C)(C)[C@@H]5CC[C@]43C)[C@H]12	CCRF-CEM leukemia	TGI	5.64 µM

###

# reported TGI; entries follow
# System: NCI-H226 lung
# assay.explanation: NCI tumour cell line growth inhibition, 48 h
experimental.endpoint: TGI

> print(dat)
                                    molecule  experimental.target  value.measured
 1  CCOC(=O)c1sc2nc(SC)nc3c2c1NCN3c1ccc2c(c1)OCCCO2        NCI-H226 lung        > 100 µM
 2  Cc1nn(C(=O)c2ccncc2)c2c1C(c1ccc(Cl)cc1)SC(N)=N2 (configuration not stated)        NCI-H226 lung         > 10 µM
 3  Cc1cc(OCc2nn(CN3CCN(C)CC3)c(=S)n2/N=C/c2ccc(-c3ccc(Cl)cc3Cl)o2)ccc1Cl        NCI-H226 lung        > 100 µM
 4  COc1ccc(C2=NN(C(=O)COc3ccc(Cl)cc3)C(O)(c3ccc(Cl)cc3)C2)cc1 (configuration not stated)        NCI-H226 lung        > 100 µM
 5  CS(=O)(=O)c1ccc(-c2cnc(N)c(C(=O)Nc3ccccc3)n2)cc1        NCI-H226 lung        > 100 µM
 6  Cc1ccc(/C=C2/SC(Nc3nc(-c4nc(NC5=NC(=O)/C(=C\c6ccc(C)cc6)S5)sc4C)c(C)s3)=NC2=O)cc1        NCI-H226 lung       > 30.4 µM
 7  C=CCOC1OC(CS(=O)(=O)O)C(O)C(O)C1O (configuration not stated)        NCI-H226 lung        > 100 µM
 8  O=C1NC(=S)NC(=O)C1C(c1ccc([N+](=O)[O-])cc1)C1C(=O)NC(=S)NC1=O        NCI-H226 lung        > 100 µM
 9  O=c1c2cccc3cccc(c4oc5c6cccc7cccc(c(=O)c5c14)c76)c32        NCI-H226 lung       > 31.6 µM
10  O=C1OC(CC(=O)c2ccc(Cl)cc2Cl)C(Cl)=C1Cl (configuration not stated)        NCI-H226 lung       > 89.5 µM
11  NC1CC(N)c2c(Br)sc(Br)c21 (configuration not stated)        NCI-H226 lung        > 100 µM
12  CCOC(=O)c1cc(C2CCN(CC(C)CC)C2=S)c(-c2cc(C)no2)[nH]1 (configuration not stated)        NCI-H226 lung        > 100 µM

###

# reported TGI; entries follow
# Tested on: SNB-75 CNS
# assay.explanation: NCI tumour cell line growth inhibition, 48 h

compound	TGI
CC(=O)O[C@@H]1[C@H]2[C@@H](OC(=O)c3ccccc3)[C@@H](C)C[C@]2(O)[C@H](OC(C)=O)[C@@]2(C)[C@@H]3CC(C)(C)C(=O)[C@]3(OC(C)=O)C[C@@]12C	> 25 µM
CC(C)[C@@]12C[C@@H](OC(=O)COC(=O)/C=C/c3ccccc3)[C@@](C)(O1)[C@@H]1CC[C@@H](C)[C@H]1[C@@H]2OC(=O)/C=C/c1ccccc1	> 100 µM
Cc1cccc(NC(=O)c2cc3cc(N=Nc4ccccc4Cl)ccc3oc2=O)c1	> 100 µM
C=C(C)[C@@H]1CC[C@]2(C(=O)NCCNCCNCCN)CC[C@]3(C)[C@H](CC[C@@H]4[C@@]5(C)CC[C@H](O)C(C)(C)[C@@H]5CC[C@]43C)[C@@H]12	27.6 µM
O=C(/C=C/c1cccs1)c1ccc(Nc2nc(Nc3ccc(F)cc3)nc(Nc3ccc(F)cc3)n2)cc1	70.4 µM
Cc1nc2ccc(F)cc2c2c1CCO2	> 100 µM
Nc1c(Br)c(=O)[nH]c(=O)n1COCCO	> 100 µM
O=C1/C(=C/c2ccc3c(c2)OCO3)CCC1CN1CCOCC1 (configuration not stated)	28.7 µM
CN1CCN(c2cc3c(cc2F)c(=O)c(C(=O)O)cn3C2CC2)CC1CC#N (configuration not stated)	> 100 µM
Cc1ccc(NC(=O)c2cc3ccccc3c(N=Nc3ccccc3O)c2O)c(C)c1	2.5 µM
COc1cc(C(O)c2nc3ccccc3s2)cc(OC)c1OC (configuration not stated)	> 100 µM
CC1=C(O)C(=O)C[C@]2(C)[C@H]3CC=C4[C@@H]5CC(C)(C)CC[C@@H]5C(=O)[C@H](O)[C@@]4(C)[C@]3(C)CC[C@@H]12	> 50 µM
CCN(CCNc1ccc(C)c2sc3cc(Cl)ccc3c(=O)c12)CC(C)O (configuration not stated)	3.57 µM
O=c1[nH]nc2ccccc2c1Cl	47.1 µM
Cc1ccc(S(=O)(=O)NNC(=O)c2sc(-c3nc(C)c(C(=O)NNS(=O)(=O)c4ccc(C)cc4)s3)nc2C)cc1	> 100 µM
Cc1nc2sc(C(=O)Nc3cccc4ccccc34)c(N)c2cc1C(=O)/C=C/c1ccccc1	> 10.4 µM
Cc1cc(C)nc(NC(=S)Nc2ccccc2Cl)c1	> 100 µM
C(=C\c1nccs1)/c1cccc(/C=C/c2nccs2)n1	> 50 µM
CN1CCN(c2nc(NCCCCNc3ccnc4cc(Cl)ccc34)c3ccccc3n2)CC1	10 µM
c1cc(CCN2CCCCC2)ccn1	> 100 µM
O=C(c1ccco1)n1c2ccc(Br)cc2c2nc3ccccc3nc21	58.6 µM
CCCCn1cnnc1NS(=O)(=O)c1cc(C)c(Cl)cc1SCC(=O)O	> 10 µM
